Value source: patent US20160083466A1

Biological target: T1, monkey IL-25 expressed with a C-terminal myc-myc-hexahistidine tag (M. fascicularis (cynomolgus monkey))
T1 construct: also called monkey IL-25-MMH; MfIL-25-MMH
T1 chain: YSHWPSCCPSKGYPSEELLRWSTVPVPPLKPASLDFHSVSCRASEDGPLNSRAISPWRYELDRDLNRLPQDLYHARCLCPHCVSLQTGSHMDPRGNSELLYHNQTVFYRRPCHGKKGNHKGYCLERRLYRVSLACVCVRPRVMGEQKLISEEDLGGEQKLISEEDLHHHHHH
Test: SPR Biacore, captured mAb, 25°C;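 also: Real-time surface plasmon resonance on a Biacore 4000, with IL-25-MMH binding to purified anti-IL-25 antibodies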
Each entry below lists one item and its recorded kon value.

# binder, kon / M⁻¹ s⁻¹
data = [
    ("H4H10901P (antibody, human IgG4, V domains shown) VH: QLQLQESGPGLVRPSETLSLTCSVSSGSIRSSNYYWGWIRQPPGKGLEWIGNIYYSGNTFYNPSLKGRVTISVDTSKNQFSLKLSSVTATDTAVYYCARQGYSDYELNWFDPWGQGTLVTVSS VL: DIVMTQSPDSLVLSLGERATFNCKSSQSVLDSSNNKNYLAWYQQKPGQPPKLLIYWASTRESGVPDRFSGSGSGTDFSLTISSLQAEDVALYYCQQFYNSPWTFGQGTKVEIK", "2.63e+06"),
    ("H4H10883P (antibody, human IgG4, V domains shown) VH: QVQLQESGPGLVKSSETLSLTCTVSGGSISSYYWSWIRQPPGKGLEWIGFIYYSGSTNYNPSLKSRVTFSVDTSKNHFSLKLNSVTATDTAVYYCARHYFDSGTYELGPFDYWGQGTLVTVSS VL: DIVMTQSPDSLAVSLGERATINCKSSQNILLTSSNKNYLTWYQQKPGQPPKLLIYWASIRESGVPDRFSGSGSGTDFTLTISSLQAEDVALYFCQQYYITPFTFGPGTKVDIK", "1.04e+06"),
    ("H4H10876P (antibody, human IgG4, V domains shown) VH: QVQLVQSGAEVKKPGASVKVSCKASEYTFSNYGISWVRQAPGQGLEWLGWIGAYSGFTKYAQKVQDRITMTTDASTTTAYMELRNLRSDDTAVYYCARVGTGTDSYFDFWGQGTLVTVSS VL: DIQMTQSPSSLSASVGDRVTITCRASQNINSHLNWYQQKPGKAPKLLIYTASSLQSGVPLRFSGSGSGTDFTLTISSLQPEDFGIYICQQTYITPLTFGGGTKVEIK", 329000),
]
